Values compiled from ChEMBL document CHEMBL1955811.

- PROCEDURE TEXT: Cmax in mouse at 80 mg/kg, po
- Type: ADME, organism-based
- Design: dose 80 mg/kg, route oral
- RUN PARAMETERS: in vivo

- COMPOUND: "COc1ccc(COc2ccc(Cc3cnc(N)nc3N)cc2OC)cc1 [GW632580X]"
  Cmax: "400 nM"

---

- PROCEDURE TEXT: Cmax in mouse at 80 mg/kg, po
- Type: ADME, organism-based
- Design: dose 80 mg/kg, route oral
- RUN PARAMETERS: in vivo

- MOLECULE: "COc1ccc(COc2ccc(Cc3cnc(N)nc3N)cc2OC)cc1 [GW632580X]"
  Cmax (µM): 5.6

---

- PROCEDURE TEXT: Growth inhibition of serum-stimulated human MDA231 cells after 3 days by spectrophotometry
- Format: functional, cell-based
- RUN PARAMETERS: MDA-MB-231, 72 h

- MOLECULE: "COc1ccc(COc2ccc(Cc3cnc(N)nc3N)cc2OC)cc1 [GW632580X]"
  IC50: "> 30 µM"

---

- SYSTEM: Protein kinase C beta type (Homo sapiens)
- Sequence (P05771 whole entry): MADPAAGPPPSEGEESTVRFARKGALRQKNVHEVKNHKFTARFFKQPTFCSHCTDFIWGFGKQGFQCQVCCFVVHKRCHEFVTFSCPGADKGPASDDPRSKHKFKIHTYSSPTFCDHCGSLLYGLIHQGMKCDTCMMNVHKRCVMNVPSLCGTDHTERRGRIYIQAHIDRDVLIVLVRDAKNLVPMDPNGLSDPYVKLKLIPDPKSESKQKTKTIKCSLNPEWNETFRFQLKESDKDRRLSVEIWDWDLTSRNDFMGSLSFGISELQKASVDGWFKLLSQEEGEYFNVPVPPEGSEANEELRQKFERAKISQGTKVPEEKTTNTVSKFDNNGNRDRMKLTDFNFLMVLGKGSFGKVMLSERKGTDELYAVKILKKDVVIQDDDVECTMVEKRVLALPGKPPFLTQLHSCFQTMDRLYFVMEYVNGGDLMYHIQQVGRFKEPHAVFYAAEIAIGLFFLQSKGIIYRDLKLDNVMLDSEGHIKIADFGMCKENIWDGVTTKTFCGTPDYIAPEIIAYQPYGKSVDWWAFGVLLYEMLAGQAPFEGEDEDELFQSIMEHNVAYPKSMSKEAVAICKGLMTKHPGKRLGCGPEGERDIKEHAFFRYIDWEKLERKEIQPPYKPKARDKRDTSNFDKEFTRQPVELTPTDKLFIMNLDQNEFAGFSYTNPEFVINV

- COMPOUND: "COc1ccc(COc2ccc(Cc3cnc(N)nc3N)cc2OC)cc1 [GW632580X]"
  IC50: "> 13 µM"

---

- PROCEDURE TEXT: Protein binding in cell-culture media with rat plasma at 3 uM
- Type: ADME, cell-free
- RUN PARAMETERS: read-out: PB (converted)

- COMPOUND: "COc1ccc(COc2ccc(Cc3cnc(N)nc3N)cc2OC)cc1 [GW632580X]"
  fraction unbound at 3 µM: 0.05

---

- SYSTEM: Protein kinase C alpha type (Homo sapiens)
pIC50: −log10 of the molar value.

- COMPOUND: "COc1ccc(COc2ccc(Cc3cnc(N)nc3N)cc2OC)cc1 [GW632580X]"
  pIC50: "< 4.89"

---

- Test system: HFF
- PROCEDURE TEXT: Growth inhibition of serum-stimulated HFF after 3 days by spectrophotometry
- Assay type: cell-based
- RUN PARAMETERS: Homo sapiens, 72 h

- COMPOUND: "COc1ccc(COc2ccc(Cc3cnc(N)nc3N)cc2OC)cc1 [GW632580X]"
  IC50: "> 30 µM"

---

- PROCEDURE TEXT: Cmax in mouse at 20 mg/kg, po
- Assay type: ADME, organism-based
- Set-up: dose 20 mg/kg, route oral
- RUN PARAMETERS: in vivo

- MOLECULE: "COc1ccc(COc2ccc(Cc3cnc(N)nc3N)cc2OC)cc1 [GW632580X]"
  DISPLAY UNIT: "nM"
  Cmax: 1400

---

- PROCEDURE TEXT: Protein binding in cell-culture media with 10% fetal calf serum at 3 uM
- Format: ADME, cell-free, Bos taurus
- RUN PARAMETERS: cattle, read-out: PB (converted)

- COMPOUND: "COc1ccc(COc2ccc(Cc3cnc(N)nc3N)cc2OC)cc1 [GW632580X]"
  fraction unbound at 3 µM: 0.76
